# Test system: M14 melanoma
# method: NCI-60 one-dose screen, 48 h (100 = growth as untreated, 0 = no growth, -100 = all killed)
# condition_details: 10 µM
The panel holds about 83,000 compounds, 20% with a hit somewhere; the sample as a whole holds those more often.
Rule for this label: 1.0 means growth is less than 40%; 0.0 means growth is at least 40%.

compound	assigned_class
CCCCCCN(CCCCCC)CC(O)c1ccc2c3c(cccc13)CC2 (stereo not given)	1.0

Does the reported growth of the following compound sit strictly below 40%? O=[N+]([O-])c1cccc(-c2ncc(-c3ccc(Cl)cc3Cl)[nH]2)c1
1.0

Does the reported growth of the following compound sit strictly below 40%? Cc1cc(O)c(C(C)(C)C)cc1Sc1cc(C(C)(C)C)c(O)cc1C
1.0

Does the reported growth of the following compound sit strictly below 40%? O=c1oc2cc(OS(=O)(=O)c3ccccc3)ccc2c2c1CCCCC2
0.0

* * *

# Test system: HCC-2998 colon
# method: NCI-60 one-dose screen, 48 h (100 = growth as untreated, 0 = no growth, -100 = all killed)
# condition_details: 10 µM
Compounds without any hit were thinned out: in the full panel of roughly 83,000, 20% have a hit.
Parameter growth: see the listing below.
Respond numerically; units are % and should not be typed.

Past entries and their recorded results:
compound	measured_property	observed_measurement
Clc1ccc(Nc2ccnc(NCCNc3ccnc4cc(Cl)ccc34)n2)cc1	growth	-89
COc1cc(Cl)cc(-c2nn(-c3cccc(NC(=O)Nc4ccc(Cl)c(C(F)(F)F)c4)c3)cc2-c2ccncc2)c1	growth	18.1
CCN(CC)CCCC(C)Nc1nc(-c2ccc(OC)cc2)nc2cc(Cl)ccc12 (centres undefined)	growth	54.1

Next item in the queue.
Requested read-out: growth. Entry: CN(C)N=Nc1nn(C(=O)Nc2ccc(Cc3ccccc3)cc2)c2ccccc12
10.1

* * *

# System: ACHN renal
# method: NCI-60 one-dose screen, 48 h (100 = growth as untreated, 0 = no growth, -100 = all killed)
# condition_details: 10 µM
The panel holds about 83,000 compounds, 20% with a hit somewhere; the sample as a whole holds those more often.
measured_property: growth (%)
Respond numerically; units are % and should not be typed.

Past entries and their recorded results:
molecule	growth [%]
COc1ccc(-c2nc3ccccn3c2-c2nnc(-c3cc(OC)c(OC)c(OC)c3)o2)cc1	49.4
O=C(O)CC(Cl)C(Cl)CC(=O)O (configuration not stated)	103
COc1ccc2c(c1)-c1c(c3cc(OC)ccc3n(CCN(C)C)c1=O)C2=O	8.27

Requested read-out: growth. Entry: COc1cccc(C(=O)Nc2ccc(CN3CCc4nc5cc(OC)c(OC)cc5cc43)cc2)c1
36.9

Requested read-out: growth. Entry: CC1(O)CCC2CC3OC3(C)CCC3OC3(C)CCC1C2(C)C (configuration not stated)
102

Requested read-out: growth. Entry: Fc1cc(C(F)(F)F)ccc1-c1cncnc1NC1CCCCCC1
91.5

Requested read-out: growth. Entry: Nc1ccc2c(c1)C1(CCC2)NC(=O)NC1=O (configuration not stated)
101

Requested read-out: growth. Entry: CCn1cc(C(=O)O)c(=O)c2cnc(N3CCCC3)nc21
100

Requested read-out: growth. Entry: NC1(C(=O)O)CSSC1
49.4

Requested read-out: growth. Entry: N#Cc1cccc(OCc2nc(N)nc(N)c2-c2ccc(Cl)c(Cl)c2)c1
17.7

Requested read-out: growth. Entry: O=C1c2ccc3c4c(ccc(c24)C(=O)N1CCNCc1ccccc1)C(=O)N(CCNCc1ccccc1)C3=O
85.4

Requested read-out: growth. Entry: O=C(Nc1cccc(-n2cc(-c3ccncc3)c(-c3cc(O)cc(Cl)c3)n2)c1)Nc1ccc(Cl)c(C(F)(F)F)c1
21.3
